Tested on: 885512-296-R-J2-PDC complex spheroid viability
Experiment: Anticancer human tumor 885512-296-R-J2-PDC patient-derived breast carcinoma cell line growth inhibition [GQUAD]
Conditions: second compound 1 µM; first compound 0.0316 µM; active compounds read low
Excerpt: DNA G-quadruplex Stabilizer Agents in Combinations in Complex Spheroids A high-throughput screen of multi-cell type tumor spheroids was designed to identify active combinations of DNA G-quadruplex stabilizer agents and targeted small molecules. […] Compounds. […] If the clinical Cmax for an agent had not been determined, the highest concentration tested was 10 microM. […]
parameter_measured: viability, T/C (%)

>  <compound>
COc1ccc([C@@H](O)c2cc(-c3ncnc4cc(N5CCOCC5)ccc34)c(F)cc2Cl)nn1 + Cc1[nH]c2ccc(F)cc2c1-c1nc2c3cccnc3c3ncccc3c2[nH]1

>  <system_under_test>
885512-296-R-J2-PDC complex spheroid viability

>  <parameter_measured>
viability, T/C

>  <measured>
73.7

$$$$
>  <compound>
Nc1ccn(C2OC(CO)C(O)C2(F)F)c(=O)n1 (stereo unspecified) + CN(C)c1ccc(Nc2c3ccc(NC(=O)CCN4CCCC4)cc3nc3cc(NC(=O)CCN4CCCC4)ccc23)cc1

>  <system_under_test>
885512-296-R-J2-PDC complex spheroid viability

>  <parameter_measured>
viability, T/C

>  <measured>
7.45

$$$$
>  <compound>
O=C(NO)c1cnc(N2CCN(S(=O)(=O)c3ccc4ccccc4c3)CC2)nc1 + CN(C)c1ccc(Nc2c3ccc(NC(=O)CCN4CCCC4)cc3nc3cc(NC(=O)CCN4CCCC4)ccc23)cc1

>  <system_under_test>
885512-296-R-J2-PDC complex spheroid viability

>  <parameter_measured>
viability, T/C

>  <measured>
74.8

$$$$
>  <compound>
O=c1[nH]cc(F)c(=O)[nH]1 + Cc1[nH]c2ccc(F)cc2c1-c1nc2c3cccnc3c3ncccc3c2[nH]1

>  <system_under_test>
885512-296-R-J2-PDC complex spheroid viability

>  <parameter_measured>
viability, T/C

>  <measured>
80.4

$$$$
>  <compound>
CC1COCCN1c1cc(-c2ccnn2C)c2ccnc(-c3ccn[nH]3)c2n1 (stereo unspecified) + Cc1[nH]c2ccc(F)cc2c1-c1nc2c3cccnc3c3ncccc3c2[nH]1

>  <system_under_test>
885512-296-R-J2-PDC complex spheroid viability

>  <parameter_measured>
viability, T/C

>  <measured>
5.35

$$$$
>  <compound>
C=CCn1c(=O)c2cnc(Nc3ccc(N4CCN(C)CC4)cc3)nc2n1-c1cccc(C(C)(C)O)n1 + Cc1cnc(CNC(=O)c2c(=O)c3ccc(N4CCCN(C)CC4)nc3n3c2sc2ccccc23)cn1

>  <system_under_test>
885512-296-R-J2-PDC complex spheroid viability

>  <parameter_measured>
viability, T/C

>  <measured>
22.6

$$$$
>  <compound>
CC(C)n1c(=O)n(C)c2cnc3cc(F)c(-c4ccc(OCCCN5CCCCC5)nc4)cc3c21 + Cc1[nH]c2ccc(F)cc2c1-c1nc2c3cccnc3c3ncccc3c2[nH]1

>  <system_under_test>
885512-296-R-J2-PDC complex spheroid viability

>  <parameter_measured>
viability, T/C

>  <measured>
48.6

$$$$
>  <compound>
CC1COCCN1c1cc(C2(S(C)(=N)=O)CC2)nc(-c2ccnc3[nH]ccc23)n1 (stereo unspecified) + CN(C)c1ccc(Nc2c3ccc(NC(=O)CCN4CCCC4)cc3nc3cc(NC(=O)CCN4CCCC4)ccc23)cc1

>  <system_under_test>
885512-296-R-J2-PDC complex spheroid viability;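 further: spheroids exposed to the compounds for one week; percent of tumor spheroid viability relative to DMSO vehicle control wells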

>  <parameter_measured>
viability, T/C

>  <measured>
97.3

$$$$
>  <compound>
CCc1c2c(nc3ccc(O)cc13)-c1cc3c(c(=O)n1C2)COC(=O)[C@]3(O)CC + Cc1[nH]c2ccc(F)cc2c1-c1nc2c3cccnc3c3ncccc3c2[nH]1

>  <system_under_test>
885512-296-R-J2-PDC complex spheroid viability;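 further: spheroids exposed to the compounds for one week; percent of tumor spheroid viability relative to DMSO vehicle control wells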

>  <parameter_measured>
viability, T/C

>  <measured>
1.69

$$$$
>  <compound>
COc1ncnc(C2CC2)c1-c1ncc2cnn(Cc3ccc(-c4nc(C(F)(F)F)cn4C(C)C)cc3)c2n1 + CN(C)c1ccc(Nc2c3ccc(NC(=O)CCN4CCCC4)cc3nc3cc(NC(=O)CCN4CCCC4)ccc23)cc1

>  <system_under_test>
885512-296-R-J2-PDC complex spheroid viability;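 further: spheroids exposed to the compounds for one week; percent of tumor spheroid viability relative to DMSO vehicle control wells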

>  <parameter_measured>
viability, T/C

>  <measured>
95

$$$$
>  <compound>
COc1ccc([C@@H](O)c2cc(-c3ncnc4cc(N5CCOCC5)ccc34)c(F)cc2Cl)nn1 + Cc1cnc(CNC(=O)c2c(=O)c3ccc(N4CCCN(C)CC4)nc3n3c2sc2ccccc23)cn1

>  <system_under_test>
885512-296-R-J2-PDC complex spheroid viability;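 further: spheroids exposed to the compounds for one week; percent of tumor spheroid viability relative to DMSO vehicle control wells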

>  <parameter_measured>
viability, T/C

>  <measured>
21.8

$$$$
